Provenance of the data: ChEMBL document CHEMBL2406929

# Activity per entry
- experimental protocol: Effect on total ATP level in human Friedreich's ataxia lymphocytes at 5 uM after 48 hrs by bioluminescence assay relative to control
- Assay type: functional

{"smiles notation": "CCCCCCCCCCCCCCCCc1nc(N(C)C)nc(OC)c1O", "Activity": "108%"}
{"smiles notation": "COC1=C(OC)C(=O)C(CCCCCCCCCCO)=C(C)C1=O", "Activity": "73%"}
{"smiles notation": "CCCCCCCCCCCCCCCCCCc1nc(N(C)C)nc(OC)c1O", "Activity": "101%"}
{"smiles notation": "COc1nc(N(C)C)nc(CCCCCCCCCCO)c1O", "Activity": "80%"}
{"smiles notation": "Cc1nc(N(C)C)nc(CCCCCCCCCCO)c1O", "Activity": "77%"}
{"smiles notation": "CCCCCCCCCCC1=C(C)C(=O)C(OC)=C(OC)C1=O", "Activity": "93%"}
{"smiles notation": "CCCCCCCCCCCCCCc1nc(N(C)C)nc(OC)c1O", "Activity": "109%"}
{"smiles notation": "CCCCCCCCCCc1nc(N(C)C)nc(OC)c1O", "Activity": "94%"}
{"smiles notation": "CCCCCCCCCCCCCCCCc1nc(N(C)C)nc(OC)c1OC(C)=O", "Activity": "109%"}
{"smiles notation": "COc1nc(N(C)C)nc(CCCCCCCCCCOCC23CC4CC(CC(C4)C2)C3)c1O", "Activity": "107%"}
